These data points were gathered from patent US6281214A.

- TARGET_OR_SYSTEM: serotonin S2 receptor (Rattus norvegicus, UniProt P14842)
- Sequence (P14842 whole entry): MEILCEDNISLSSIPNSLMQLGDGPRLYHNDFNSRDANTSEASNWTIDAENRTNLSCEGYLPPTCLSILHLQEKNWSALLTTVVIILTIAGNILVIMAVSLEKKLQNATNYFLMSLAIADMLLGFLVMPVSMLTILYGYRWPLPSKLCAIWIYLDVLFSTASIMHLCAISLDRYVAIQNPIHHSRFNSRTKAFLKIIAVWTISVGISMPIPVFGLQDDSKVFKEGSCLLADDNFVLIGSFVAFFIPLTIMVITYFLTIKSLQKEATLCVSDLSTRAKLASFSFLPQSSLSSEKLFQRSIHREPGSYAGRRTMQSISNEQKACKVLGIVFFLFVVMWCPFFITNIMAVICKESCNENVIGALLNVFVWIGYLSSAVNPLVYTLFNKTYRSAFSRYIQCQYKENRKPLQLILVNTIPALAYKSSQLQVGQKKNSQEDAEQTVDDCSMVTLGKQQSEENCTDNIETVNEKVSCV
Note to self: use Fulfilled only for Ki readings below 60 nM; a reading exactly at 60 nM still gets Not fulfilled.

Solved entries (count: 3):
Decide: Ki of "CCOC(=O)CCc1cc(N2CCN(CC)CC2)cc(-c2ccccc2)c1OC" strictly below 60 nM?
Fulfilled

Here is the next compound: "CCN1CCN(c2cc(CCl)c(OC)c(-c3ccccc3)c2)CC1"
Not fulfilled

Moving on to "CCN1CCN(c2cc(-c3ccc(F)cc3C)c(Cl)c(S(=O)(=O)CC3CC3)c2)CC1"
Fulfilled

More entries:
Determine if "CCC(=O)c1cc(N2CCN(CC)CC2)cc(-c2ccccc2)c1Cl" shows Ki strictly lower than 60 nM.
Fulfilled

Same lookup for CCC(F)c1cc(N2CCN(CCc3ccccn3)CC2)cc(-c2ccccc2C#N)c1Cl (centres unmarked) , please.
Fulfilled

* * *

- TARGET_OR_SYSTEM: dopamine D2 receptor (Rattus norvegicus)
- Construct: the receptor fraction prepared from the corpus striatum was molten and suspended; from tissue; host or cells: corpus striatum of SD rats (membrane fraction)
- Sequence (P61169 whole entry): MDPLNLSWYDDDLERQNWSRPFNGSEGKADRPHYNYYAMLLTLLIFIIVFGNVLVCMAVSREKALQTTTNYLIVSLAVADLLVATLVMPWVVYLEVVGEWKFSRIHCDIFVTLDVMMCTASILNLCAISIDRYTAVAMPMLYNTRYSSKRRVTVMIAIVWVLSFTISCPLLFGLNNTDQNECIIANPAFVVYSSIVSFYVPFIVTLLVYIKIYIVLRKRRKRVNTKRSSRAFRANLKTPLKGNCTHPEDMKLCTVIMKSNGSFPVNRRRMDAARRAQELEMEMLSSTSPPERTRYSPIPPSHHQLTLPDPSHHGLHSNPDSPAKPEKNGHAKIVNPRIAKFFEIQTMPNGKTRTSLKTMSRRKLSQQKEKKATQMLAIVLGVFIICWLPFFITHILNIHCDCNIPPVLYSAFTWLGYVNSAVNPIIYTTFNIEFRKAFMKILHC
- EXPERIMENT_DESCRIPTION: dopamine D2 receptor binding test ([3H] Spiperone Binding Test)
- Set-up: species or system SD rats
- EXPERIMENTAL_CONTEXT: 1 nM [3H] Spiperone, rat corpus striatum, room temperature, 60 minutes; read-out: Ki value, dopamine D2 receptor
PARAMETER_MEASURED: Ki (nM)
State just the number; it will be interpreted in nM.

// below: answered compounds
Give the reported Ki for CCCc1cc(N2CCN(CC)CC2)cc(-c2ccccc2C)c1OC [Example 116] (system: dopamine D2 receptor (Rattus norvegicus)).
9.65

Can you check CCCc1cc(N2CCN(CC)CC2)cc(-c2ccc(F)cc2F)c1OC [Example 91] next?
7.34

And what about the compound CCCC(F)c1cc(N2CCN(C)CC2)cc(-c2ccccc2Cl)c1Cl (stereo not drawn) [Example 178] ?
7.3

Request: CC[C@H](F)c1cc(N2CCN(C)CC2)cc(-c2ccccc2CF)c1Cl [Example 210]
16.1

And what about the compound CCCC(F)c1cc(N2CCN(CC)CC2)cc(-c2ccccc2C)c1Cl (stereo not drawn) [Example 49] ?
6.09

Next compound, please.
Param readout = Ki; param system = dopamine D2 receptor (Rattus norvegicus); param query = CCCC(F)c1cc(N2CCN(CC)CC2)cc(-c2ccccc2C)c1F (stereo not drawn) [Example 50] ; response: value
9.14

* * *

- TARGET_OR_SYSTEM: adrenergic α1 receptor
- EXPERIMENT_DESCRIPTION: adrenergic α1 receptor binding test ([3H] Prazosin Binding Test)
- Set-up: species or system SD rats
- EXPERIMENTAL_CONTEXT: 1 nM [3H] Prazosin, rat cortex, room temperature, 60 minutes
pKi: −log10 of the molar value.
PARAMETER_MEASURED: pKi

// returns reported pKi for input CCCc1cc(N2CCN(CC)CC2)cc(-c2cccc(F)c2)c1OC [Example 101]
< 6.00

What do we get for CCCC(F)c1cc(N2CCN(CC)CC2)cc(-c2ccccc2C)c1Cl (centres unmarked) [Example 49] ?
< 6.00

CCC(F)c1cc(N2CCN(CC)CC2)cc(-c2ccccc2C)c1C#N (centres unmarked) [Example 164] , same question.
< 6.00

Check CCN1CCN(c2cc(C=O)c(OC)c(-c3ccccc3)c2)CC1 [Example 106] too.
< 6.00

Queued: CCCC(F)c1cc(N2CCN(CC)CC2)cc(-c2ccccc2)c1OC (centres unmarked) [Example 47]
< 6.00
